# Tested on: COLO 205 colon
# test description: NCI tumour cell line growth inhibition, 48 h
Mark class 1 for reported TGI of 30 µM or greater; mark class 0 for anything smaller.

[
  {
    "compound": "COc1ccc(C2C(C=O)C(N3CCN(C)CC3)=Nc3nc4ccccc4n32)cc1 (stereo not given)",
    "class label": "class 1"
  },
  {
    "compound": "C=CCSSc1ncnc2c1ncn2C1OC(CO)C(O)C1O (stereo not given)",
    "class label": "class 0"
  },
  {
    "compound": "Fc1c(F)c(C(F)(F)F)c(F)c(F)c1N/N=C/c1cn(Cc2ccccc2)c2ccccc12",
    "class label": "class 0"
  },
  {
    "compound": "FC(F)(F)c1cccc(C2SCc3nc4ccccc4n32)c1 (stereo not given)",
    "class label": "class 1"
  },
  {
    "compound": "O=C(O)c1ccc(NNC(=O)c2cccc3c(=O)c4ccccc4[nH]c23)cc1",
    "class label": "class 1"
  },
  {
    "compound": "COc1cc2c3c(n(CCCN4CCCC(O)C4)c(=O)c2cc1OC)-c1cc2c(cc1C3=O)OCO2 (stereo not given)",
    "class label": "class 0"
  },
  {
    "compound": "CC(C)NC(=O)OCc1c(COC(=O)NC(C)C)c(-c2ccc[n+](COC(=O)C(C)(C)C)c2)n2c1CCC2",
    "class label": "class 1"
  },
  {
    "compound": "O=c1c(=[n+]2ccc(=C([O-])c3ccccc3)cc2)/c(=N/S(=O)(=O)c2ccccc2)c(=O)c2ccccc12",
    "class label": "class 0"
  },
  {
    "compound": "O=C1C[C@H](CCC(=O)OCc2ccccc2)NC(=O)C[C@H](CCC(=O)OCc2ccccc2)NC(=O)C[C@H](CCC(=O)OCc2ccccc2)N1",
    "class label": "class 1"
  }
]
